read-out: CYP2E1 (gene 1571); assay: LTEA_HepaRG_CYP2E1: Life Technologies and Expression Analysis (LTEA) Assay for CYP2E1 using HepaRG (AID 2283485); conditions: mRNA level, 48 h; actives raise or lower the signal
Calls of active or inactive are those of the source. The calls were made as follows: active = hit-call score of the fitted dose curve at least 0.9, where 1 is the maximum; inactive = score below 0.9.
Parameter call: string, one of 1 (yes) for active, 0 (no) for inactive

molecule	label_class
CCCCCCOC(=O)CC(CC(=O)OCCCCCC)(OC(=O)CCC)C(=O)OCCCCCC	0 (no)

Enquiry: # fetch the recorded call for CCc1ccc(O)c(C(C)(C)C)c1 here
Return: 0 (no)

Enquiry: # fetch the recorded call for NC(N)=O here
Return: 0 (no)

Enquiry: # fetch the recorded call for CC[C@H](C)C(=O)O[C@H]1C[C@H](O)C=C2C=C[C@H](C)[C@H](CC[C@@H](O)C[C@@H](O)CC(=O)O)[C@H]21 here
Return: 1 (yes)

Enquiry: # fetch the recorded call for OC[C@H]1O[C@@](CO)(O[C@H]2O[C@H](CO)[C@@H](O)[C@H](O)[C@H]2O)[C@@H](O)[C@@H]1O here
Return: 0 (no)

Enquiry: # fetch the recorded call for CCn1nc(C)c2c1C(=O)NCC(c1ccc(O)cc1)=N2 here
Return: 0 (no)

Enquiry: # fetch the recorded call for O=C(NO)C1(NS(=O)(=O)c2ccc(Oc3ccc(F)cc3)cc2)CCOCC1 here
Return: 1 (yes)

Enquiry: # fetch the recorded call for OCCOCCOCCO here
Return: 0 (no)

Enquiry: # fetch the recorded call for c1ccc(C(O[C@@H]2CCCN(CCc3ccc4c(c3)OCO4)C2)c2ccccc2)cc1 here
Return: 1 (yes)

Enquiry: # fetch the recorded call for CCCCCCCC/C=C\CCCCCCCC(=O)OC[C@@H](O)[C@H]1OC[C@H](O)[C@H]1O here
Return: 0 (no)
